target: HLA-A*02:01; experiment: IEDB peptide-MHC binding, cellular MHC/competitive/fluorescence; bounds were set here for any values at or beyond the usual limits of such assays; settings: source organism: Human papillomavirus 16
pIC50: −log10 of the molar value.
Consider the following sequences and their measured pIC50 readings.
endpoint: pIC50

In [3]: df
Out[3]:
    sequence_data  endpoint  reported
 0    IRTLEDLLMGT     pIC50      4.50
 1       YMLDLQPE     pIC50      5.09
 2    YMLDLQPETTD     pIC50      5.63
 3    RTLEDLLMGTL     pIC50      5.57
 4    EDLLMGTLGIV     pIC50      4.85
 5      TLEDLLMGT     pIC50      4.19
 6     EYMLDLQPET     pIC50      4.34
 7    TLHEYMLDLQP     pIC50      4.71
 8     RTLEDLLMGT     pIC50      4.17
 9      ELQTTIHDI     pIC50      4.43
10       MLDLQPET     pIC50      4.27
